Assay: Cytotoxicity against HMEC1 cells after 72 hrs by MTT assay
Type: cell-based
Details: Homo sapiens, HMEC-1, 72 h
pIC50: −log10 of the molar value.
pIC50 by entry:
VALUE_TYPE: pIC50

- Cl.Clc1ccc(Nc2cc3nc4ccccc4n(-c4ccc(Cl)cc4)c-3c/c2=N/CC23CCCN2CCC3)cc1: 5.45
- Cl.Fc1ccc(Nc2cc3nc4ccccc4n(-c4ccc(F)cc4)c-3c/c2=N/CCCCC23CCCCN2CCCC3)cc1: 5.71
- Cl.Fc1ccc(Nc2cc3nc4ccccc4n(-c4ccc(F)c(Cl)c4)c-3c/c2=N/CCCCCCC23CCCCN2CCCC3)cc1Cl: 5.87
- Cl.c1ccc(Nc2cc3nc4ccccc4n(-c4ccccc4)c-3c/c2=N/CC23CCCN2CCC3)cc1: 5.58
- Cl.c1ccc(-n2c3c/c(=N/CCCCC45CCCCN4CCCC5)c(Nc4cccnc4)cc-3nc3ccccc32)cc1: 5.41
- Cl.Clc1ccc(Nc2cc3nc4ccccc4n(-c4ccc(Cl)cc4)c-3c/c2=N/CCC23CCCN2CCC3)cc1: 6.01
- CN(C)CCC/N=c1/cc2n(-c3ccc(Cl)cc3)c3ccccc3nc-2cc1Nc1cccnc1: 5.33
- c1ccc(Nc2cc3nc4ccccc4n(-c4ccccc4)c-3c/c2=N/CCC[C@@H]2CCCN3CCCC[C@H]23)cc1: 5.35
- Cc1ccc(Nc2cc3nc4ccccc4n(-c4ccc(C)cc4)c-3c/c2=N/C[C@@H]2CCCN3CCCC[C@H]23)cc1.Cl: 5.80
- COc1ccc(Nc2cc3nc4ccccc4n(-c4ccccc4)c-3c/c2=N/CCCCC23CCCCN2CCCC3)cn1.Cl: 5.20
- Cl.c1ccc(Nc2cc3nc4ccccc4n(-c4ccccc4)c-3c/c2=N/CCC23CCCN2CCC3)cc1: 5.72
- C[C@@H]1[C@H](O)[C@@H](C)/C=C/C=C/C=C/C=C/C=C/C=C/C=C/[C@H](O[C@@H]2O[C@H](C)[C@@H](O)[C@H](N)[C@@H]2O)C[C@@H]2O[C@](O)(C[C@@H](O)C[C@@H](O)[C@H](O)CC[C@@H](O)C[C@@H](O)CC(=O)O[C@H]1C)C[C@H](O)[C@H]2C(=O)O: 4.59
- Cl.Fc1ccc(Nc2cc3nc4ccccc4n(-c4ccc(F)cc4)c-3c/c2=N/CCCCCCC23CCCCN2CCCC3)cc1: 5.73
- Cl.c1ccc(Nc2cc3nc4ccccc4n(-c4ccccc4)c-3c/c2=N/CCCCC23CCCCN2CCCC3)cc1: 5.91
- C[N+]12CCCCC1(CCCC/N=c1/cc3n(-c4ccccc4)c4ccccc4nc-3cc1Nc1ccccc1)CCCC2.[I-] (stereo not given): 4.96
- CC(C)/N=c1\cc2n(-c3ccc(Cl)cc3)c3ccccc3nc-2cc1Nc1ccc(Cl)cc1: 4.73
- Cl.Clc1ccc(-n2c3c/c(=N/CCCCC45CCCCN4CCCC5)c(Nc4cccnc4)cc-3nc3ccccc32)cc1: 5.63
- Cl.c1ccc(Nc2cc3nc4ccccc4n(-c4ccccc4)c-3c/c2=N/CCN2CCCC2)cc1: 5.86
- Cl.c1ccc(Nc2cc3nc4ccccc4n(-c4ccccc4)c-3c/c2=N/CCCCCCC23CCCCN2CCCC3)cc1: 5.91

====

# Ratio IC50 listing for each entry below
Test: Selectivity index, ratio of IC50 for HMEC1 to IC50 for chloroquine-sensitive Plasmodium falciparum D10
VALUE_TYPE: Ratio IC50

* Cl.c1ccc(Nc2cc3nc4ccccc4n(-c4ccccc4)c-3c/c2=N/CCCCC23CCCCN2CCCC3)cc1 | 5.9
* Cc1ccc(Nc2cc3nc4ccccc4n(-c4ccc(C)cc4)c-3c/c2=N/C[C@@H]2CCCN3CCCC[C@H]23)cc1.Cl | 7.5
* Cl.Clc1ccc(Nc2cc3nc4ccccc4n(-c4ccc(Cl)cc4)c-3c/c2=N/CC23CCCN2CCC3)cc1 | 5.8
* c1ccc(Nc2cc3nc4ccccc4n(-c4ccccc4)c-3c/c2=N/CCC[C@@H]2CCCN3CCCC[C@H]23)cc1 | 36.6
* Cl.Fc1ccc(Nc2cc3nc4ccccc4n(-c4ccc(F)cc4)c-3c/c2=N/CCCCC23CCCCN2CCCC3)cc1 | 8.2
* Cl.Fc1ccc(Nc2cc3nc4ccccc4n(-c4ccc(F)cc4)c-3c/c2=N/CCCCCCC23CCCCN2CCCC3)cc1 | 6.7
* Cl.c1ccc(Nc2cc3nc4ccccc4n(-c4ccccc4)c-3c/c2=N/CC23CCCN2CCC3)cc1 | 4.1
* Cl.Clc1ccc(Nc2cc3nc4ccccc4n(-c4ccc(Cl)cc4)c-3c/c2=N/CCC23CCCN2CCC3)cc1 | 5.2

====

Test system: Plasmodium falciparum
Test: Antiplasmodial activity against chloroquine-resistant Plasmodium falciparum W2 assessed as inhibition of parasite growth after 72 hrs by parasite lactate dehydrogenase assay
Assay type: functional, organism-based
Conditions: W2, 72 h
API: label(entry) gives yes (1) if the entry's IC50 is strictly smaller than 300 nM; on equality or larger values it gives no (0).

* Cl.c1ccc(Nc2cc3nc4ccccc4n(-c4ccccc4)c-3c/c2=N/CC23CCCN2CCC3)cc1 | no (0)
* Cc1ccc(Nc2cc3nc4ccccc4n(-c4ccc(C)cc4)c-3c/c2=N/C[C@@H]2CCCN3CCCC[C@H]23)cc1.Cl | no (0)
* Cl.c1ccc(Nc2cc3nc4ccccc4n(-c4ccccc4)c-3c/c2=N/CCC23CCCN2CCC3)cc1 | yes (1)
* C[N+]12CCCCC1(CCCC/N=c1/cc3n(-c4ccccc4)c4ccccc4nc-3cc1Nc1ccccc1)CCCC2.[I-] (stereo not drawn) | yes (1)
* c1ccc(Nc2cc3nc4ccccc4n(-c4ccccc4)c-3c/c2=N/CCC[C@@H]2CCCN3CCCC[C@H]23)cc1 | yes (1)
* CN(C)CCC/N=c1/cc2n(-c3ccc(Cl)cc3)c3ccccc3nc-2cc1Nc1cccnc1 | yes (1)
* Cl.Clc1ccc(-n2c3c/c(=N/CCCCC45CCCCN4CCCC5)c(Nc4cccnc4)cc-3nc3ccccc32)cc1 | yes (1)
* c1ccc(Nc2cc3nc4ccccc4n(-c4ccccc4)c-3c/c2=N/C[C@H]2CCCN3CCCC[C@H]23)cc1 | yes (1)

====

Assay: Selectivity index, ratio of IC50 for HMEC1 to IC50 for Leishmania tropica MHOM/IT/2012/ISS3130
VALUE_TYPE: Ratio IC50

• CC(C)/N=c1\cc2n(-c3ccc(Cl)cc3)c3ccccc3nc-2cc1Nc1ccc(Cl)cc1 [CLOFAZIMINE] = 6.3
• Cl.c1ccc(Nc2cc3nc4ccccc4n(-c4ccccc4)c-3c/c2=N/CCCCC23CCCCN2CCCC3)cc1 = 5.6
• c1ccc(Nc2cc3nc4ccccc4n(-c4ccccc4)c-3c/c2=N/CCC[C@@H]2CCCN3CCCC[C@H]23)cc1 = 1.7
• C[N+]12CCCCC1(CCCC/N=c1/cc3n(-c4ccccc4)c4ccccc4nc-3cc1Nc1ccccc1)CCCC2.[I-] (centres undefined) = 10.1

====

System: Plasmodium falciparum
Assay: Antiplasmodial activity against chloroquine-resistant Plasmodium falciparum W2 assessed as inhibition of parasite growth after 72 hrs by parasite lactate dehydrogenase assay
Format: functional, organism-based
Details: W2, 72 h
pIC50: −log10 of the molar value.
VALUE_TYPE: pIC50

* c1ccc(Nc2cc3nc4ccccc4n(-c4ccccc4)c-3c/c2=N/CC[C@@H]2CCCN3CCCC[C@H]23)cc1 | 6.57
* Cl.Fc1ccc(Nc2cc3nc4ccccc4n(-c4ccc(F)cc4)c-3c/c2=N/CCCCCCC23CCCCN2CCCC3)cc1 | 6.47
* c1ccc(Nc2cc3nc4ccccc4n(-c4ccccc4)c-3c/c2=N/C[C@@H]2CCCN3CCCC[C@H]23)cc1 | 6.09
* Cl.Fc1ccc(Nc2cc3nc4ccccc4n(-c4ccc(F)cc4)c-3c/c2=N/CCCCC23CCCCN2CCCC3)cc1 | 6.41
* Cl.Fc1ccc(Nc2cc3nc4ccccc4n(-c4ccc(F)c(Cl)c4)c-3c/c2=N/CCCCCCC23CCCCN2CCCC3)cc1Cl | 6.24
* Cl.c1ccc(-n2c3c/c(=N/CCCCC45CCCCN4CCCC5)c(Nc4cccnc4)cc-3nc3ccccc32)cc1 | 6.68

====

Tested on: Plasmodium falciparum
Test: Resistance index, ratio of IC50 for chloroquine-resistant Plasmodium falciparum W2 to IC50 for chloroquine-sensitive Plasmodium falciparum D10
Assay type: functional
Here, each record is paired with measured Ratio IC50 data.
VALUE_TYPE: Ratio IC50

* CN(C)CCC/N=c1/cc2n(-c3ccc(Cl)cc3)c3ccccc3nc-2cc1Nc1cccnc1 | 0.7
* Cc1ccc(Nc2cc3nc4ccccc4n(-c4ccc(C)cc4)c-3c/c2=N/C[C@@H]2CCCN3CCCC[C@H]23)cc1.Cl | 1.9
* c1ccc(Nc2cc3nc4ccccc4n(-c4ccccc4)c-3c/c2=N/C[C@H]2CCCN3CCCC[C@H]23)cc1 | 1.7
* COc1ccc(Nc2cc3nc4ccccc4n(-c4ccccc4)c-3c/c2=N/CCCCC23CCCCN2CCCC3)cn1.Cl | 0.4
* c1ccc(Nc2cc3nc4ccccc4n(-c4ccccc4)c-3c/c2=N/CCC[C@@H]2CCCN3CCCC[C@H]23)cc1 | 0.5
* CC(C)/N=c1\cc2n(-c3ccc(Cl)cc3)c3ccccc3nc-2cc1Nc1ccc(Cl)cc1 | 1.5
* Cl.Fc1ccc(Nc2cc3nc4ccccc4n(-c4ccc(F)cc4)c-3c/c2=N/CCCCC23CCCCN2CCCC3)cc1 | 1.6
* Cl.c1ccc(Nc2cc3nc4ccccc4n(-c4ccccc4)c-3c/c2=N/CC23CCCN2CCC3)cc1 | 0.7
* c1ccc(Nc2cc3nc4ccccc4n(-c4ccccc4)c-3c/c2=N/C[C@@H]2CCCN3CCCC[C@H]23)cc1 | 2.2
* Cl.c1ccc(Nc2cc3nc4ccccc4n(-c4ccccc4)c-3c/c2=N/CCC23CCCN2CCC3)cc1 | 0.9
* Cl.Clc1ccc(-n2c3c/c(=N/CCCCC45CCCCN4CCCC5)c(Nc4cccnc4)cc-3nc3ccccc32)cc1 | 0.8
* Cl.Clc1ccc(Nc2cc3nc4ccccc4n(-c4ccc(Cl)cc4)c-3c/c2=N/CCC23CCCN2CCC3)cc1 | 2.4
* Cl.c1ccc(Nc2cc3nc4ccccc4n(-c4ccccc4)c-3c/c2=N/CCCCC23CCCCN2CCCC3)cc1 | 1.3
* Cl.c1ccc(Nc2cc3nc4ccccc4n(-c4ccccc4)c-3c/c2=N/CCN2CCCC2)cc1 | 0.6
* Cl.Fc1ccc(Nc2cc3nc4ccccc4n(-c4ccc(F)cc4)c-3c/c2=N/CCCCCCC23CCCCN2CCCC3)cc1 | 1.2
* c1ccc(Nc2cc3nc4ccccc4n(-c4ccccc4)c-3c/c2=N/CC[C@@H]2CCCN3CCCC[C@H]23)cc1 | 1.5
